Tested on: MCF7 breast
Test: NCI-60 one-dose screen, 48 h
Conditions: 10 µM unless noted
The panel holds about 83,000 compounds, 20% with a hit somewhere; the sample as a whole holds those more often. Active and inactive are the calls of the source. Rule for the calls: active = growth percent below 10; inactive = the rest.
Assign a class; possible classes are class 1 (active), class 0 (inactive)

Answered cases to consult:
Compound	Measured Target	Label Value
[Br][Pb]([c]1ccccc1)([c]1ccccc1)[c]1ccccc1	MCF7 breast	class 1
Oc1ccccc1OB(Oc1ccccc1O)N(CCCl)CCCl	MCF7 breast	class 0
COc1ccc2c(c1)NC1=C(C(=O)OC1)C2c1cc(OC)c(OC)c(OC)c1 (stereo unspecified)	MCF7 breast	class 1
COc1cc(C2CC(=O)Nc3nc(N)[se]c32)c(OC)c2c1OCO2 (stereo unspecified)	MCF7 breast	class 0
CCC[CH2][Sn]([CH2]CCC)([CH2]CCC)[O]C(=O)CC	MCF7 breast	class 1
O=C(O)CCC1N=C(c2cccc(O)c2)c2ccccc2NC1=O (stereo unspecified)	MCF7 breast	class 0
N#CCN1C(=O)C(Cc2ccccc2)N=C(c2cccc(O)c2)c2ccc(Cl)cc21 (stereo unspecified)	MCF7 breast	class 0
O=C(CF)N(O)c1ccc(/C=C/c2ccccc2)cc1	MCF7 breast	class 0
CC[C@H](C)[C@H](NC(=O)Nc1ccccc1)C(=O)N(C)[C@H](C[C@@H](OC(C)=O)c1nc(C(=O)N[C@@H](Cc2ccccc2)C[C@H](C)C(=O)OC)cs1)C(C)C	MCF7 breast	class 0
N#CCN1C(=O)C(CCC(N)=O)N=C(c2ccc(O)cc2)c2cc(Cl)ccc21 (stereo unspecified)	MCF7 breast	class 0

stdin: # outcome recorded in this test, key = N#CC1=C(N)Oc2cc3c(cc2C1c1cccs1)OCO3 (stereo unspecified)
stdout: class 0

stdin: For CC1(C)N=C(N)N=C(N)N1c1ccc(OCCCCNC(=O)c2ccc(S(=O)(=O)F)cc2)c(Cl)c1 then?
stdout: class 0

stdin: For O=C1NC(=O)C(=Cc2cn(Cc3ccccc3)c3ccccc23)C(=O)N1 then?
stdout: class 0

stdin: For CCCCNCCc1ccccn1 then?
stdout: class 0

stdin: For C[C@]12CC[C@@H]3c4ccc(OC(=O)Cc5ccc(N(CCCl)CCCl)cc5)cc4CC[C@H]3[C@@H]1CC[C@@H]2OC(=O)Cc1ccc(N(CCCl)CCCl)cc1 then?
stdout: class 0

stdin: For CC(=O)Oc1ccc(Cl)cc1 then?
stdout: class 0

stdin: For CC(=O)C1CCC2C3CC=C4CC(OC(=O)Cc5ccc(N(CCCl)CCCl)cc5)CCC4(C)C3CCC12C (stereo unspecified) then?
stdout: class 0

stdin: For CCOC(=O)C1(c2ccccc2)CCN(CC(=O)c2ccc(NC(C)=O)cc2)CC1 then?
stdout: class 0

* * *

Tested on: HL-60(TB) leukemia
Assay: NCI-60 one-dose screen, 48 h
Settings: 10 µM unless noted
This is part of a sample that, as a whole, favours compounds with a hit. Of some 83,000 tested, about 20% had one in any assay. Active and inactive are the calls of the source. Rule for the calls: active = growth percent below 10; inactive = the rest.
Assign a class; possible classes are T (active), F (inactive)

Answered cases to consult:
Compound	Label Value
CCN(CC)Cc1cc(C=C2C(=O)NC(=S)NC2=O)cc(OC)c1O	F
O=C1NC(=O)c2c(CCCSc3nc4ccccc4c(=O)n3CCc3ccccc3)cccc21	F
CCCCCCC1(/C=N/NC(N)=O)NC(=O)NC1=O (stereo not given)	F
CCN(CC)CCCCNc1c2ccc(Cl)cc2nc2ccc(OC)cc12	T
COc1ccc(/C=C/c2c(C(=O)/C=C/c3ccccc3)c(C)nc3ccccc23)cc1	T

stdin: # outcome recorded in this test, key = C=CC(=O)Nc1cccc(Oc2nc(Nc3ccc(N4CCN(C)CC4)cc3)nc3ccsc23)c1
stdout: T

stdin: For NNC(=O)Cc1ccccc1 then?
stdout: F

stdin: For CNC(=O)c1cncc(Cn2nc(C)c(NC(=O)c3ccc(COc4ccc(C(F)(F)F)cc4C)cc3)c2C)c1 then?
stdout: F

stdin: For O=[N+]([O-])c1ccc(SSc2ccc([N+](=O)[O-])cc2Cl)c(Cl)c1 then?
stdout: F

stdin: For O=C1OC(c2ccc(Cl)c(Cl)c2)=C/C1=C/c1cccc([N+](=O)[O-])c1 then?
stdout: F
